Procedure Text: Pharmacokinetics (PK) in SD rats
Format: in vivo
Condition Details: SD, plasma, po; rat, intragastric administration, 5 mg/kg; read-out: F % (absolute bioavailability)

Molecule: COc1ccc(CNc2nc(N3CC4CC4C3)ncc2C(=O)N[C@H]2CC[C@H](O)CC2)cc1C (stereo partly shown)
bioavailability [%]: 65
//
Molecule: CCOc1ccc(CNc2nc(N3CC4CC4C3)ncc2C(=O)N[C@H]2CC[C@H](O)CC2)cc1C (stereo partly shown)
bioavailability [%]: 52
//
Molecule: CCOc1ccc(CNc2nc(N3CC4CC4C3)ncc2C(=O)N[C@H]2CC[C@H](O)CC2)cc1C(F)(F)F (stereo partly shown)
bioavailability [%]: 40
//
Molecule: CCOc1ccc(CNc2nc(N3CC4CC4C3)ncc2C(=O)N[C@H]2CC[C@H](O)CC2)cc1Cl (stereo partly shown)
bioavailability [%]: 65
//
Molecule: CCOc1ccc(CNc2nc(N3CC4CC4C3)ncc2C(=O)N[C@H]2CC[C@H](O)CC2)cc1F (stereo partly shown)
bioavailability [%]: 60
//
Molecule: COc1ccc(CNc2nc(N3CC4CC4C3)ncc2C(=O)N[C@H]2CC[C@H](O)CC2)cc1F (stereo partly shown)
bioavailability [%]: 63
//
Molecule: COc1ccc(CNc2nc(N3CC4CC4C3)ncc2C(=O)N[C@H]2CC[C@H](O)CC2)cc1C(F)(F)F (stereo partly shown)
bioavailability [%]: 25
